# Tested on: Staphylococcus aureus (ATCC29213)
# Test method notes: Microtitre plate assay, IC90 determination (STA 29213)
# Assay type: cell-based
# Settings: Staphylococcus aureus, ATCC29213, 24 h, 90% inhibitory concentration for bacterial growth, 37° C., resazurin fluorescence
Measure: IC90 (µg/mL)

Recorded results for 2 molecules are shown here.
molecule="COc1nc2ccc(CO)cc2cc1C(c1ccccc1)C(O)(CCc1ccccc1)CCN(C)C (stereo not shown) [Compound 58]" measure=IC90 reported=8.6
molecule="COc1ccc2nc(OC)c(C(c3ccccc3)C(O)(CCc3ccccc3)CCN(C)C)cc2c1 (stereo not shown) [Compound 3]" measure=IC90 reported=12.2

(1) COc1nc2ccc(Br)cc2cc1C(c1ccc(Cl)cc1)C(O)(CCc1ccc(F)cc1)CCN(C)C (stereo not shown) [Compound 79]
(2) COc1nc2ccc(Br)cc2cc1C(c1cccc(C)c1)C(O)(CCc1ccccc1)CCN(C)C (stereo not shown) [Compound 71]
Form field 'greater IC90' accepts 1 or 2 ; which applies? I would appreciate it if you answered with the label of your choice.
1
(1: 9.3 µg/mL, 2: 2.2 µg/mL)
